# PARTICULARS: 318.15 K; 103 kPa; Liquid; Vibrating tube method
QUANTITY_NAME: mass density (kg/m3)

Form: molecule = `CO[Si](C)(OC)c1ccccc1` ; mass density = 982.15

Form: molecule = `CCO[Si](C)(C)OCC` ; mass density = 813.79

Form: molecule = `CO[Si](C)(C)OC` ; mass density = 834.24

Form: molecule = `C=C[Si](OC)(OC)OC` ; mass density = 942.63

Form: molecule = `C=C[Si](C)(OCC)OCC` ; mass density = 835.44

---

# ASSAY_REMARKS: xn = mol fraction of the nth substance listed
# PARTICULARS: 308.15 K; 103 kPa; Liquid; Vibrating tube method; x2 = 0.75
QUANTITY_NAME: mass density (kg/m3)

Form: compound = C=C[Si](C)(OCC)OCC [methylvinyldiethoxysilane] + CO[Si](C)(OC)c1ccccc1 ; mass density = 956.12

Form: compound = CO[Si](C)(C)OC [dimethoxydimethylsilane] + CO[Si](C)(OC)c1ccccc1 ; mass density = 964.15

Form: compound = C=C[Si](OC)(OC)OC [trimethoxy(vinyl)silane] + CO[Si](C)(OC)c1ccccc1 ; mass density = 984.15

Form: compound = CCO[Si](C)(C)OCC [dimethyldiethoxysilane] + CO[Si](C)(OC)c1ccccc1 ; mass density = 952.94

---

# ASSAY_REMARKS: refractive index (Na D-line) (dimensionless); xn = mol fraction of the nth substance listed
# PARTICULARS: 298.15 K; 103 kPa; Liquid; Standard Abbe refractometry; x2 = 0.75
QUANTITY_NAME: refractive index

Form: compound = CCO[Si](C)(C)OCC [dimethyldiethoxysilane] + CO[Si](C)(OC)c1ccccc1 ; refractive index = 1.45489

Form: compound = CO[Si](C)(C)OC [dimethoxydimethylsilane] + CO[Si](C)(OC)c1ccccc1 ; refractive index = 1.45621

Form: compound = C=C[Si](C)(OCC)OCC [methylvinyldiethoxysilane] + CO[Si](C)(OC)c1ccccc1 ; refractive index = 1.45797

Form: compound = C=C[Si](OC)(OC)OC [trimethoxy(vinyl)silane] + CO[Si](C)(OC)c1ccccc1 ; refractive index = 1.45871

---

# ASSAY_REMARKS: refractive index (Na D-line) (dimensionless)
# PARTICULARS: 303.15 K; 103 kPa; Liquid; Standard Abbe refractometry
QUANTITY_NAME: refractive index

Form: compound = C=C[Si](C)(OCC)OCC [methylvinyldiethoxysilane] ; refractive index = 1.39501

Form: compound = CO[Si](C)(C)OC [dimethoxydimethylsilane] ; refractive index = 1.36559

Form: compound = CCO[Si](C)(C)OCC [dimethyldiethoxysilane] ; refractive index = 1.37791

Form: compound = C=C[Si](OC)(OC)OC [trimethoxy(vinyl)silane] ; refractive index = 1.38775

Form: compound = CO[Si](C)(OC)c1ccccc1 [dimethoxymethylphenylsilane] ; refractive index = 1.47528

---

# ASSAY_REMARKS: xn = mol fraction of the nth substance listed
# PARTICULARS: 298.15 K; 103 kPa; Liquid; Vibrating tube method; x2 = 0.75
QUANTITY_NAME: mass density (kg/m3)

Form: compound = CCO[Si](C)(C)OCC [dimethyldiethoxysilane] + CO[Si](C)(OC)c1ccccc1 ; mass density = 962.69

Form: compound = CO[Si](C)(C)OC [dimethoxydimethylsilane] + CO[Si](C)(OC)c1ccccc1 ; mass density = 973.78

Form: compound = C=C[Si](OC)(OC)OC [trimethoxy(vinyl)silane] + CO[Si](C)(OC)c1ccccc1 ; mass density = 993.89

Form: compound = C=C[Si](C)(OCC)OCC [methylvinyldiethoxysilane] + CO[Si](C)(OC)c1ccccc1 ; mass density = 965.63
